tested on: SiHa; assay: CellTiter-Glo cytotoxicity assay, SiHa; format: cell-based; conditions: Homo sapiens, 72 h, read-out: SiHa (IC50 nM) 72h
Quantity Name: IC50 (nM)
Quick reminder: number only, in nM, skip the unit.

Problem: May I ask what IC50 has been recorded for CCC(=C/[C@H](C)C/C=C/C(C)=C/[C@@H](C)C(=O)[C@@H](C)[C@H](O)[C@@H](C)C/C(C)=C/C(=O)O)/C=C/[C@@H]1OC(=O)C=C[C@@H]1C [Leptomycin B] ?
Solution: 0.4

----------
tested on: HCT-116; assay: CellTiter-Glo cytotoxicity assay, HCT-116; type: cell-based; settings: Homo sapiens, HCT-116, 72 h, read-out: HCT-116 (IC50 nM) 72h
Quantity Name: IC50 (nM)
Quick reminder: number only, in nM, skip the unit.

Problem: May I ask what IC50 has been recorded for CCC(=C/[C@H](C)C/C=C/C(C)=C/[C@@H](C)C(=O)[C@@H](C)[C@H](O)[C@@H](C)C/C(C)=C/C(=O)O)/C=C/[C@@H]1OC(=O)C=C[C@@H]1C ?
Solution: 0.3
